System: foliar fungal diseases of plants
Assay type: in vivo
Set-up: key: 4: no disease; 3: trace −5% of disease on untreated plants; 6-25% of disease on untreated plants; 1: 26-59% of disease on untreated plants; 60-100% of disease on untreated plants
measurement.setup: Venturia inaequalis on apple; applied to soil (roots) and foliage one or two days before inoculation
experimental.endpoint: disease control grading, VENTURIA INAEQUALIS (APPLE)
Please reply with the value in numeric form only.

Given the compound `CO/C=C(/C(=O)OC)c1ccccc1COc1ccccc1[N+](=O)[O-]` , write its reported disease control grading, VENTURIA INAEQUALIS (APPLE). 4

Using known records, supply disease control grading, VENTURIA INAEQUALIS (APPLE) for `CO/C=C(/C(=O)OC)c1ccccc1COc1cccc(C)c1` 4

Note down disease control grading, VENTURIA INAEQUALIS (APPLE) recorded for `CO/C=C(/C(=O)OC)c1ccccc1COc1ccc(Cl)cc1Cl` 4

Retrieve disease control grading, VENTURIA INAEQUALIS (APPLE) measured for `CO/C=C(/C(=O)OC)c1ccccc1COc1cccc(OCc2ccccc2)c1` and print it. 4

Please report disease control grading, VENTURIA INAEQUALIS (APPLE) for the following compound: `CO/C=C(/C(=O)OC)c1ccccc1COc1cccc(Cl)c1` 4

Look up and report measured disease control grading, VENTURIA INAEQUALIS (APPLE) for this entry: `CO/C=C(/C(=O)OC)c1ccccc1COc1ccccc1Cl` 4

Specify measured disease control grading, VENTURIA INAEQUALIS (APPLE) for `CO/C=C(/C(=O)OC)c1ccccc1COc1cccc(OC)c1` . 4

Given the compound `CO/C=C(/C(=O)OC)c1ccccc1COc1cccc([N+](=O)[O-])c1` , write its reported disease control grading, VENTURIA INAEQUALIS (APPLE). 4

For `CO/C=C(/C(=O)OC)c1ccccc1COc1cccc(C(F)(F)F)n1` , write its disease control grading, VENTURIA INAEQUALIS (APPLE). 4

Please indicate disease control grading, VENTURIA INAEQUALIS (APPLE) recorded for `CO/C=C(/C(=O)OC)c1ccccc1COc1cccc(-c2cccc(OC)c2)c1` 4

Give recorded disease control grading, VENTURIA INAEQUALIS (APPLE). `CO/C=C(/C(=O)OC)c1ccccc1CSc1ccccc1` 4

Kindly indicate its recorded disease control grading, VENTURIA INAEQUALIS (APPLE). Item: `CO/C=C(/C(=O)OC)c1ccccc1COc1cccc(Br)n1` 4

# return recorded disease control grading, VENTURIA INAEQUALIS (APPLE) for entry `CO/C=C(/C(=O)OC)c1ccccc1COc1c(Cl)cccc1Cl` 4

Specify measured disease control grading, VENTURIA INAEQUALIS (APPLE) for `CO/C=C(/C(=O)OC)c1ccccc1COc1cc(Cl)cc(Cl)c1` . 4

Entry `CO/C=C(/C(=O)OC)c1ccccc1COc1cccc(Oc2cccc(Br)c2)c1` needs its disease control grading, VENTURIA INAEQUALIS (APPLE) filled in; supply it. 4

Tell us which disease control grading, VENTURIA INAEQUALIS (APPLE) value is on record for `CO/C=C(/C(=O)OC)c1ccccc1COc1ccc2ccccc2n1` 4

Give disease control grading, VENTURIA INAEQUALIS (APPLE) for `CO/C=C(/C(=O)OC)c1ccccc1COc1ccccc1Br` 4

Please give the documented disease control grading, VENTURIA INAEQUALIS (APPLE) of `CO/C=C(/C(=O)OC)c1ccccc1COc1cccc(C=O)c1` 4

Complete the entry with disease control grading, VENTURIA INAEQUALIS (APPLE) for `CO/C=C(/C(=O)OC)c1ccccc1COc1ccc(F)cc1` 4

Tell me disease control grading, VENTURIA INAEQUALIS (APPLE) reported for `CO/C=C(/C(=O)OC)c1ccccc1COc1cc(Cl)cc(OC)c1` 4

Please report the measured disease control grading, VENTURIA INAEQUALIS (APPLE) for COC=C(C(=O)OC)c1ccccc1C(C)Sc1ccccc1 (stereo not shown) 4

Report disease control grading, VENTURIA INAEQUALIS (APPLE), nothing else, for this compound: `CO/C=C(/C(=O)OC)c1ccccc1COc1cccc(C(C)(C)C)c1` 4

Supply disease control grading, VENTURIA INAEQUALIS (APPLE) value. Item: `CO/C=C(/C(=O)OC)c1ccccc1COc1cccc(Cl)c1Cl` 4

Kindly indicate its recorded disease control grading, VENTURIA INAEQUALIS (APPLE). Item: `CO/C=C(/C(=O)OC)c1ccccc1COc1cccc(I)c1` 4

Given the compound `CO/C=C(/C(=O)OC)c1ccccc1COc1cccnc1` , write its reported disease control grading, VENTURIA INAEQUALIS (APPLE). 4

Quote disease control grading, VENTURIA INAEQUALIS (APPLE) reported for `CCc1ccccc1OCc1ccccc1/C(=C\OC)C(=O)OC` please. 4

Tell us which disease control grading, VENTURIA INAEQUALIS (APPLE) value is on record for `CO/C=C(/C(=O)OC)c1ccccc1COc1ccc(C#N)cc1` 4

Dear colleague, please send me the reported disease control grading, VENTURIA INAEQUALIS (APPLE) for `CO/C=C(/C(=O)OC)c1ccccc1COc1cccc(Br)c1` when you can. 4

Fill in disease control grading, VENTURIA INAEQUALIS (APPLE) for record `CO/C=C(/C(=O)OC)c1ccccc1COc1ccccn1` 4

Dear colleague, please send me the reported disease control grading, VENTURIA INAEQUALIS (APPLE) for `CO/C=C(/C(=O)OC)c1ccccc1COc1cccc(Oc2ccccc2OC)c1` when you can. 4

Tell me measured disease control grading, VENTURIA INAEQUALIS (APPLE) for `CO/C=C(/C(=O)OC)c1ccccc1COc1cccc(C(F)(F)F)c1` please. 4

Where do the numbers come from? From patent US6653258B1.
